Attribution: patent US20250049896A1

Target: T1, hmm.hTfRC (REGN2431), human transferrin receptor extracellular domain with hexahistidine-myc-myc tag (human, UniProt P02786 89-760)
T1 construct: Monomeric recombinant protein, 79210 g/mol; also called hTFR-mmh; His-myc-myc-hTFRC ecto
T1 sequence (P02786 other isoform, or with tags, fused parts or gaps): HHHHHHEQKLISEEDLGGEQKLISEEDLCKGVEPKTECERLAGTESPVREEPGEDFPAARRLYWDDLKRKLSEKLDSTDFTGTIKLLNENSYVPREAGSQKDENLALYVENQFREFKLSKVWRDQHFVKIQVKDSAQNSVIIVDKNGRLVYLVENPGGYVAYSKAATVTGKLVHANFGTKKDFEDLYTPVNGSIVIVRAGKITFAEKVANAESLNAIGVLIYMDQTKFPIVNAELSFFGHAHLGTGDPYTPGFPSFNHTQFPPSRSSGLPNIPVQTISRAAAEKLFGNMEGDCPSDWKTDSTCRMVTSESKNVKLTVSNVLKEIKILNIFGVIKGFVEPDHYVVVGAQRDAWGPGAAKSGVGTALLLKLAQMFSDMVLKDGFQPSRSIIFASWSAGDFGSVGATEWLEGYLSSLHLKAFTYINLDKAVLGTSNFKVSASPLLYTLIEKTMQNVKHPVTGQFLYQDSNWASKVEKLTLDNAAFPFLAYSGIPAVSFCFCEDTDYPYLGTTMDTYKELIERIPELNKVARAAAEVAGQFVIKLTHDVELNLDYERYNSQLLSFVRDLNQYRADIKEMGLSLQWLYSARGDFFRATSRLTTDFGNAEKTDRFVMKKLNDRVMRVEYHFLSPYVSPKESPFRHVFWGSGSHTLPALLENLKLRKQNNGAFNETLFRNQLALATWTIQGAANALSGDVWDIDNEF
Assay: SPR (Biacore), mAb captured on anti-human Fc, 100 nM hTFR-mmh, 25 C
property.measured: kon (M⁻¹ s⁻¹)
# number only, unit M⁻¹ s⁻¹ dropped from output

A selection of reference data follows.
INSERT INTO assay_data (binder, property_measured, scale_unit, test_result) VALUES
  ('31863B (antibody, human IgG1, kappa, V domains shown, Tested as bivalent human IgG1 from CHO primary supernatant) VH: EVQLVESGGGLVQPGGSLRLSCAASGFTFNSYAMTWVRQAPGKGLEWVSFIGGSTGNTYYAGSVKGRFTISSDNSKKTLYLQMNSLRAEDTAVYYCAKGGAARRMEYFQHWGQGTLVTVSS VL: DIQMTQSPSSLSASIGDRVTITCRASQGISNYLAWYQQKPGKVPKLLIYAASTLQSGVPSRFSGSGSGTDFTLTISSLQPEDVATYYCQNHNSVPLTFGGGTKVEIKR', 'kon', 'M⁻¹ s⁻¹', 152000),
  ('12808B (antibody, human IgG1, kappa, V domains shown, Tested as bivalent human IgG1 from CHO primary supernatant) VH: QLQLQESGPGLVKPSETLSLTCTVSGESISSNTYYWGWIRQPPGKGLEWIGSIDYSGTTNYNPSLKSRVTISVDTSRNHFSLRLRSVTAADTAVYYCAREWGNYGYYYGMDVWGQGTTVTVSS VL: DIQMTQSPSSLSASVGDRVTINCRASQGIRNDLGWYQQKPGKAPKRLIYAASSLQSGVPLRFSGSGSGTEFTLTINNLQPEDFATYYCLSHNSYPWTFGQGTKVEIKR', 'kon', 'M⁻¹ s⁻¹', 119000);

Field: next binder
Req: // fetch kon given entry 69348 (antibody, human IgG1, kappa, V domains shown, Tested as bivalent human IgG1 from CHO primary supernatant) VH: QVQLVESGGGVVQPGRSLRLSCAASGFTFTTYGMHWVRQAPGKGLEWVAVIWYDGSNKYYGDSVKGRFTISRDNSKNTLYLQMNSLRVDDTAVYYCTRTHGYTRSSDGFDYWGQGTLVTVSS VL: DIQMTQSPSSLSASVGDRVTITCRASQSIRNVLGWFQQKPGKAPQRLIYAASSLQSGVPSRFSGSGSGTEFTLTISSLQPEDFATYYCLQHNFYPLTFGGGTKVEIKR
Resp: 106000
